Assign growth to each entry below.
- System: NCI-H23 lung
- assay summary: NCI-60 one-dose screen, 48 h (100 = growth as untreated, 0 = no growth, -100 = all killed)
- assay context: 10 µM
About 83,000 compounds went through this panel and 20% of them were active in at least one assay; those are over-represented in the sample as a whole.
Numbers only, in %.

CCCCOC(=O)c1ccc(C(C)C)cc1 ... 98.2
O=C1OC(c2ccc(F)cc2)CC1CN1CCOCC1 (stereo unspecified) ... 98.8
CC(C)OC(=O)c1cc(NC(=S)OC(C)C)ccc1Cl ... 79.7
O=C(CCNNC(=O)c1ccncc1)NCc1ccccc1 ... 95.8
CC(C)CCCC(=O)O ... 106
Nc1ccc(N=Nc2ccc(S(=O)(=O)O)cc2)c2ccccc12 ... 86.2
Cc1cc2nc(CC(=O)c3cccc([N+](=O)[O-])c3)c(=O)[nH]c2cc1C ... 80.3
O=C(O)C(c1ccccc1)C(O)c1ccccc1 (stereo unspecified) ... 104

Each compound below has a recorded value; state its growth.
1. N=c1c(C(=O)OCc2ccccc2)ncc(CCl)n1O
2. CC(CN1CCCCC1)NC(=O)c1scnc1-c1ccccc1 (stereo unspecified)
3. CC1=CC(C)(C)NC(=S)N1c1ccc(S(=O)(=O)O)c2cccc(S(=O)(=O)O)c12
4. Cc1cc(Cc2cc(C)c(N)cc2N)c(N)cc1N
5. CCCCC(CC)COC(C)=O (stereo unspecified)
6. O=C1Cc2ccccc2C(=O)O1
7. CCCC(C)OCC(=O)O (stereo unspecified)

result:
[100, 101, 101, 86.6, 100, 107, 109]

Each compound below has a recorded value; state its growth.
1. Cc1cc(C)c(N)c(S(=O)(=O)O)c1
2. CC(=O)/C(Cc1ccccc1)=N/O
3. Cc1c(C(=O)O)c(=O)n(-c2ccccc2)n1C
4. CCCC[P+](c1ccccc1)(c1ccccc1)c1ccccc1
5. COC(=O)c1ccc(C(C)C)cc1
6. O=S(=O)(O)C(Nc1ccccc1)c1ccccc1 (stereo unspecified)
7. CN1C(=O)CN2CCc3ccccc3C2c2cc(Cl)ccc21 (stereo unspecified)

result:
1. 92
2. 97.3
3. 92
4. 44.4
5. 100
6. 103
7. 87.1

---

Assign growth to each entry below.
- System: IGROV1 ovarian
- assay summary: NCI-60 one-dose screen, 48 h (100 = growth as untreated, 0 = no growth, -100 = all killed)
- assay context: 10 µM
This is part of a sample that, as a whole, favours compounds with a hit. Of some 83,000 tested, about 20% had one in any assay. Activity calls are given as the source filed them. How the source made its calls: active means growth percent below 10; inactive means the rest.

Sample records with growth:
CC(=O)OCC1CCCO1 (centres undefined) ... 113% (inactive)
O=C1OC(c2ccc(F)cc2)CC1CN1CCOCC1 (centres undefined) ... 104% (inactive)

Each compound below has a recorded value; state its growth.
1. O=C(Cc1nc2ccc([N+](=O)[O-])cc2nc1CC(=O)c1cccnc1)c1cccnc1
2. O=C(O)C(Cc1ccccc1)C(=O)O

result:
["73.9% (inactive)", "113% (inactive)"]

Each compound below has a recorded value; state its growth.
1. CCC(C)(C)C1CCC(O)CC1 (centres undefined)
2. COS(=O)(=O)c1ccc(Br)cc1
3. c1ncc2[nH]cnc2n1
4. CC[N+](C)(CC)CCO

result:
["107% (inactive)", "118% (inactive)", "92% (inactive)", "104% (inactive)"]

Each compound below has a recorded value; state its growth.
1. CC1(C)/C(=C\CO)C2CCC1C2 (centres undefined)
2. N#Cc1c(N)sc(=S)c2c1CCCC2
3. O=C(CS)Nc1ccc2ccccc2c1

result:
1. 112% (inactive)
2. 116% (inactive)
3. 107% (inactive)

Each compound below has a recorded value; state its growth.
1. COC(=O)C(O)c1ccccc1 (centres undefined)
2. CC(C)OC(=O)c1cc(NC(=S)OC(C)C)ccc1Cl
3. COc1cc2nc3cc([N+](=O)[O-])ccc3c(Cl)c2cc1OC
4. CCCCCCCO
5. C=CC(O)CCC (centres undefined)

result:
1: 123% (inactive); 2: 89.9% (inactive); 3: 89.7% (inactive); 4: 115% (inactive); 5: 121% (inactive)

Each compound below has a recorded value; state its growth.
1. NCCCN
2. CC1(C)S(=O)(=O)OCCOS1(=O)=O
3. Nc1ccc(C(=O)c2ccc(N)c(Br)c2)cc1Br
4. Cc1cc2ccccc2c(O)c1C#N
5. CC(=O)Nc1ccc(NC(C)=O)c2c1C(=O)c1ccccc1C2=O
6. N#Cc1ccc(OC(=O)Nc2ccc(Cl)c(Cl)c2)cc1
7. CN(C)c1ccc(C(c2ccc(O)cc2)c2ccc(N(C)C)cc2)cc1

result:
["113% (inactive)", "108% (inactive)", "32.8% (inactive)", "114% (inactive)", "67% (inactive)", "64.4% (inactive)", "106% (inactive)"]

Each compound below has a recorded value; state its growth.
1. O=S(=O)(O)CC(O)CN1CCN(CCO)CC1 (centres undefined)
2. C=C[Si](OC(C)=O)(OC(C)=O)OC(C)=O
3. CN1C(=O)CN2CCc3ccccc3C2c2cc(Cl)ccc21 (centres undefined)
4. CC(C)CCOC(=O)c1ccccc1
5. c1csc(-c2cc(-c3cc(-c4cccs4)[nH]n3)n[nH]2)c1
6. O=C1C=C(Nc2ccc([N+](=O)[O-])cc2)c2ccccc2C1=O

result:
124% (inactive)
97.2% (inactive)
-12.2% (active)
102% (inactive)
89.3% (inactive)
60.8% (inactive)
